Assay: Phase 1 single ascending dose trial of intravenous HBI-3000: pharmacokinetics
Type: in vivo
Settings: human, plasma, intravenous, 350 mg; read-out: AUC (0-last)
Description: HBI-3000 (sulcardine sulfate) was administered to human subjects according to the protocol provided in (Clinical Trials.gov Identifier: NCT03397641. That protocol is incorporated herein by reference in its entirety. Objective: Provided herein are the safety, tolerability, pharmacokinetics and electrocardiogram (ECG) results of a Phase 1 single ascending dose trial of intravenous (IV) HBI-3000 in healthy subjects. […]
Where a name gives a salt, the structure may show the parent alone.
reported.property: AUC(0-t) (ng·h/mL)

>>> measured_number("COc1ccc(S(=O)(=O)NCc2cc(CN3CCCC3)c(O)c(CN3CCCC3)c2)cc1 [HBI-3000, sulcardine sulfate]")
3370

Where do these numbers come from? They come from patent US11813245B2.
